# procedure-summary: qHTS assay for identifying genotoxic compounds that show differential cytotoxicity against isogenic chicken DT40 cell lines with known DNA damage response pathways - Rev3 mutant cell line (AID 743014); also: nearly all actives have a fitted effect of over 55% in size
# conditions: chicken DT40 Rev3-/- viability, CellTiter-Glo, 40 h; series mostly up to 68.4 µM
Results filed as inconclusive are left out. Activity calls are given as the source filed them. Calls follow the shape of the dose curve; as a rule, active = well fitted cell-killing curve with a large enough effect in the repeat runs; inconclusive = weak or mixed curves, or effect the other way; inactive = no such curve, though single readings can be large or run the other way.
Possible outcomes: active, inactive

[[record]]
compound = "CO[Si](CCCn1c(=O)n(CCC[Si](OC)(OC)OC)c(=O)n(CCC[Si](OC)(OC)OC)c1=O)(OC)OC"
qualitative_label = "inactive"

[[record]]
compound = "O=Cc1ccccc1Cl"
qualitative_label = "inactive"

[[record]]
compound = "Cc1ccc2c(c1)C(=O)c1ccccc1C2=O"
qualitative_label = "active"

[[record]]
compound = "CC(S)C(C)S (configuration not stated)"
qualitative_label = "inactive"

[[record]]
compound = "CC/C(C)=N\\O[Si](C)(O/N=C(\\C)CC)O/N=C(\\C)CC"
qualitative_label = "inactive"

[[record]]
compound = "OCCN1CCOCC1"
qualitative_label = "inactive"

[[record]]
compound = "COC(=O)c1cc(Cl)cc(Cl)c1"
qualitative_label = "inactive"

[[record]]
compound = "CN1CCOC(c2ccccc2)c2ccccc2C1 (configuration not stated)"
qualitative_label = "inactive"

[[record]]
compound = "Cc1ccc(C(=O)O)cc1[N+](=O)[O-]"
qualitative_label = "inactive"

[[record]]
compound = "CCNC(=O)NCc1cccc(Cl)c1"
qualitative_label = "inactive"

[[record]]
compound = "NCCOCCN"
qualitative_label = "inactive"

[[record]]
compound = "O=S(=O)(O)c1ccc2c(N=Nc3ccc(S(=O)(=O)O)c4ccccc34)c(O)c(S(=O)(=O)O)cc2c1"
qualitative_label = "inactive"

